Items are presented alongside their recorded pKd.
subjectOfTest: Atypical chemokine receptor 3 (Homo sapiens)
experimentalDetails: Binding affinity to NanoLuc tagged human wild type ACKR3 expressed in HEK293G cells using furimazine as NanoLuc substrate preincubated for 1 hr in dark in presence of (R)-N-(3-(2-fluorophenyl)-2methylallyl)-3,4,5-trimethoxyN-(2-(1-methylpyrrolidin-2yl)ethyl)benzamide followed by substrate addition and measured after 5 mins by NanoBRET assay
Assay type: cell-based
pKd: −log10 of the molar value.

molecule	subjectOfTest	pKd
COc1cc(C(=O)N(CC[C@H]2CCCN2C)C/C(C)=C/c2ccccc2F)cc(OCCOCCOCCNC(=O)CCCCCNC(=O)CCC2=[N+]3C(C=C2)Cc2c(C)cc(C)n2[B-]3(F)F)c1OC (stereo partly drawn)	Atypical chemokine receptor 3 (Homo sapiens)	6.82
COc1cc(C(=O)N(CC[C@H]2CCCN2C)C/C(C)=C/c2ccccc2F)cc(OCCNC(=O)CCCCCNC(=O)CCC2=[N+]3C(=Cc4c(C)cc(C)n4[B-]3(F)F)C=C2)c1OC	Atypical chemokine receptor 3 (Homo sapiens)	7.89
COc1cc(C(=O)N(CC[C@H]2CCCN2C)C/C(C)=C/c2ccccc2F)cc(OCCOCCNC(=O)CCCCCNC(=O)CCC2=[N+]3C(=Cc4c(C)cc(C)n4[B-]3(F)F)C=C2)c1OC	Atypical chemokine receptor 3 (Homo sapiens)	7.09

* * *

Items are presented alongside their recorded pKi.
subjectOfTest: Atypical chemokine receptor 3 (Homo sapiens, UniProt P25106)
Sequence (P25106 whole entry): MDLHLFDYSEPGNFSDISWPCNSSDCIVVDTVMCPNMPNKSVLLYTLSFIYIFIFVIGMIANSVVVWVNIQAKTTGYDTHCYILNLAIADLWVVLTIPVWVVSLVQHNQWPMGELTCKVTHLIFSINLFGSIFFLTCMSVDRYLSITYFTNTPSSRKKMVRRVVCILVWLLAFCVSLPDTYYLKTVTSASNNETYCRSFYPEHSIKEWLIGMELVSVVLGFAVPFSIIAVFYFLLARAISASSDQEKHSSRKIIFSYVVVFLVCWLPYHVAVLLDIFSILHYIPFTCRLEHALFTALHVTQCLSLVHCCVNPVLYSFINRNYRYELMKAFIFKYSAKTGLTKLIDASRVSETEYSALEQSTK
experimentalDetails: Binding affinity to NanoLuc tagged human wild type ACKR3 expressed in HEK293G cells using furimazine as NanoLuc substrate preincubated for 1 hr in dark in presence of (R)-N-(3-(2-fluorophenyl)-2methylallyl)-3,4,5-trimethoxyN-(2-(1-methylpyrrolidin-2yl)ethyl)benzamide followed by substrate addition and measured after 5 mins by NanoBRET competition binding assay
pKi: −log10 of the molar value.
endpoint: pKi

> print(dat)
                                   molecule  number
1  Cc1ccc(C(=O)c2cn(Cc3cccc(Br)n3)c3ccccc3c2=O)cc1C    7.40
2  C/C(=C\c1ccccc1)CN(CCC1CCCN1C)C(=O)c1ccc2c(c1)OCCO2 (centres undefined)    5.00
3  COc1ccc(C(=O)N(CCC2CCCN2C)C/C(C)=C/c2cccc(F)c2)cc1OC (centres undefined)    6.20
4  COc1ccc(C(=O)N(CCC2CCCN2C)C/C(C)=C/c2ccccc2F)cc1OC (centres undefined)    6.60

This collection of values is drawn from ChEMBL document CHEMBL5357017.
